# TARGET DESC: T1, human BCMA with a His tag (ACROBiosystems, Catalog No.: BCA-H522y) (human)
# T1 construct: Bought His-tagged recombinant protein; also called huBCMA-His; Recombinant human BCMA
# T1 chain: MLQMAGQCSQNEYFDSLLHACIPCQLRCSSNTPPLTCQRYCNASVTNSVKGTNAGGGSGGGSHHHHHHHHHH
# ASSAY INFO: SPR, Biacore T200
MEASURED METRIC: kon (M⁻¹ s⁻¹)
Give just the number in M⁻¹ s⁻¹; leave the unit off.

Data request: Endpoint output: kon of SCT-Aa04(m/m) (antibody, V domains shown, Full IgG format: mouse IgG1 heavy chain constant region, mouse kappa light chain constant region) VH: EVKLLQSGGGLVQPGGSLKLSCAASGIDFSRYWMSWVRRAPGKGLEWIGEINPDSSTINYAPSLKDKFIISRDNAKNTLYLQMSKVRSEDTALYYCASFYYDYDRGAAMDYWGQGTSVTVSS VL: DIVMTQSQKFMSTSVGDRVSVTCKASQNVGTNVAWYQQKPGQSPKALIYSASYRYSGVPDRFTGSGSGTDFTLTISNVQSEDLAEYFCQQYNSYPYTFGGGTKLEIK . Value?
Data returned: 2.25e+06

Data request: Please give the result for SCT-Aa11(h/h) (antibody, V domains shown, Full IgG format, chimeric: human IgG1 heavy chain constant region, human kappa light chain constant region) VH: QVQLQQSDAELVKPGASVKISCKVSGYTFTDHTIHWMKQRPEQGLEWIGYIFPRDGTTKFNEMFKGKATLTADKSSSTAYMELNSLTSEDSAVYFCARWDYEGFDYWGQGTTLTVSS VL: DIVMTQSPATLSVTPGDRVSLSCRASQSISDYLHWYQQKSHESPRLLIKYASQFISGIPSRFRGSGSGSDFTLSINSVEPEDVGVYYCQNGHSFPPTFGSGTKLEIK too.
Data returned: 2.4e+06

Data request: Please give the result for SCT-Aa05(h/h) (antibody, V domains shown, Full IgG format, chimeric: human IgG1 heavy chain constant region, human kappa light chain constant region) VH: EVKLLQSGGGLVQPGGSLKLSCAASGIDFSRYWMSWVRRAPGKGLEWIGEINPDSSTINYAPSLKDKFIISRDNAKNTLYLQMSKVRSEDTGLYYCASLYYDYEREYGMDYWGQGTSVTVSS VL: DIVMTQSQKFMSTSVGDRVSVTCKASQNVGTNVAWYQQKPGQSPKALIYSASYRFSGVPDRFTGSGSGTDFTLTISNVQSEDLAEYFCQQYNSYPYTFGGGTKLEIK too.
Data returned: 100000

Data request: Please give the result for SCT-Aa19(h/h) (antibody, V domains shown, Full IgG format, chimeric: human IgG1 heavy chain constant region, human kappa light chain constant region) VH: QVQLQQSGPELVKPGASVRISCKASGCTFTDYYIHWVKQRPGQGLEWIGWIYPGNLNSKFNEKFRDKATLTADNSSSTAYMQLSSLTSEDSAVYFCARYNYEGYFDYWGQGTTLTVSS VL: DIVMTQSPATLSVTPGDRVSLSCRASQSIADSLHWYQQKSHESPRLLIKYASHSISGIPSRFRGSGSGSDFTLSINSVEPEDVGVYYCQNGHSFPLTFGAGTKLELK too.
Data returned: 5.21e+06

Data request: Please give the result for SCT-Aa06(m/m) (antibody, V domains shown, Full IgG format: mouse IgG1 heavy chain constant region, mouse kappa light chain constant region) VH: EVQLQQSGPELVKPGNSVKISCKASGYSFTGYFMNWVMQSHGKSLEWIGRINPYNGDTFYNQKFKGKATLTVDKSSSTAHMELRSLTSEDSAVYYCARLDYTNYNSYPMDYWGQGTSVTVSS VL: DIQMTHTTSSLSASLGDRVTISCSASQGISNYLNWYLQKPDGTVKLLIYYTSNLHSGVPSRFSGSGSGTDFSLTISNLQPEDIATYYCQQYSKFPWTFGGGTKLEIK too.
Data returned: 3.15e+06
